Test system: A3G-Luc/Vif
Assay: A3G-Luc/Vif luciferase screen in 293T cells stably co-expressing A3G-Luc and HIV-1 Vif
Assay type: cell-based, human
Details: 10 μM, 48 hrs, DMSO = 100%
Listing of recorded Vif-A3G-Luc Activity (% of RLUs compared to DMSO treated control) by entry.
Field: numeric (%). Do not append units.

compound	assay-system	unit-symbol	value-reported
COc1ccc(C(=O)Nc2ccc(Cl)c(Cl)c2)cc1NC(=O)c1ccc2c(c1)OCO2 [NU-303]	A3G-Luc/Vif	%	71
COc1ccc(C(=O)Nc2ccc(F)cc2)cc1NC(=O)C(C)C [NU-564]	A3G-Luc/Vif	%	102

Lab note: need Vif-A3G-Luc Activity (% of RLUs compared to DMSO treated control) with A3G-Luc/Vif for entry COc1ccc(C(=O)Nc2ccc(Cl)c(Cl)c2)cc1NC(=O)C1CC1C (centres unmarked) [NU-465] , please look it up.
106

Record CCOc1ccc(C(=O)Nc2ccc(Cl)c(Cl)c2)cc1NC(=O)C1CCC1 [NU-612] : what is its Vif-A3G-Luc Activity (% of RLUs compared to DMSO treated control) with A3G-Luc/Vif?
178

Requested read-out Vif-A3G-Luc Activity (% of RLUs compared to DMSO treated control), target or system A3G-Luc/Vif, entry COc1ccc(C(=O)Nc2ccc(Cl)c(Cl)c2)cc1NC(=O)CC1CC1 [NU-466]
202

# get_value(readout= Vif-A3G-Luc Activity (% of RLUs compared to DMSO treated control), system= A3G-Luc/Vif) for COc1ccc(C(=O)Nc2ccc(Cl)c(Cl)c2)cc1NS(=O)(=O)C(C)C [NU-468]
147

Notebook entry, A3G-Luc/Vif assay: Vif-A3G-Luc Activity (% of RLUs compared to DMSO treated control) of COc1ccc(C(=O)Nc2ccc(Cl)c(Cl)c2)cc1NC(=O)C(C)C [NU-52] = ?
135

Any idea what Vif-A3G-Luc Activity (% of RLUs compared to DMSO treated control) came out for CCC(C)(C)C(=O)Nc1cc(C(=O)Nc2ccc(Cl)c(Cl)c2)ccc1OC [NU-457] on A3G-Luc/Vif?
93

# value lookup — system A3G-Luc/Vif, readout Vif-A3G-Luc Activity (% of RLUs compared to DMSO treated control), item COc1ccc(C(=O)NC2CCCCC2)cc1NC(=O)C(C)C [NU-573]
80

Recorded Vif-A3G-Luc Activity (% of RLUs compared to DMSO treated control) for COc1ccc(C(=O)Nc2ccc(Cl)c(Cl)c2)cc1NC(=O)CC(C)C [NU-452] with A3G-Luc/Vif, please?
110
